test: Quantitative High-Throughput drug screen in 47 multiple myeloma cell lines against the NCATS MIPE library collection: FR4_PLB cell viability assay (AID 1918924; also: nearly all actives have a fitted effect of over 35% in size); conditions: FR4_PLB myeloma cells viability, CellTiter-Glo ATP, 48 h; series mostly up to 45.8 µM
Inconclusive results are not listed. Active and inactive are the calls of the source. Calls follow the shape of the dose curve; as a rule, active = well fitted cell-killing curve with a large enough effect; inconclusive = small, poorly fitted or top-dose-only effect, or effect the other way; inactive = no such curve, though single readings can be large or run the other way.
Give one outcome, nothing more. List: 1 (yes) (active), 0 (no) (inactive)

Observe how each entry below is paired with its result.
CS[C@H]1SC[C@@H]2C(=O)N(C)[C@H](C(C)C)C(=O)OC[C@H](NC(=O)c3cnc4ccccc4n3)C(=O)N[C@H](C)C(=O)N(C)[C@@H]1C(=O)N(C)[C@H](C(C)C)C(=O)OC[C@H](NC(=O)c1cnc3ccccc3n1)C(=O)N[C@H](C)C(=O)N2C | 1 (yes)
CC(C)Oc1ccc(C(=O)N[C@H](CNC(=O)CN(C)C)Cc2ccc(-c3cn4cccc([C@H](C)O)c4n3)cc2)cc1Cl | 1 (yes)
C=CC[C@@H]1C=C(C)C[C@H](C)C[C@H](OC)[C@H]2O[C@@](O)(C(=O)C(=O)N3CCCC[C@H]3C(=O)O[C@H](C(C)=C[C@@H]3CC[C@H](O)[C@H](OC)C3)[C@@H](C)[C@@H](O)CC1=O)[C@@H](C)C[C@@H]2OC | 1 (yes)
C=CC(=O)N1CCc2ccc(-n3c(=O)ccc4cnc5ccc(-c6cnn(C)c6)cc5c43)cc21 | 1 (yes)
COc1cc(C)c(Sc2cnc(NC(=O)c3ccc(CNC(C)C(C)(C)C)cc3)s2)cc1C(=O)N1CCN(C(C)=O)CC1 (stereo unspecified) | 1 (yes)

Continue with the compound presented below.
Which result was noted for this compound in the test: `CC(=O)O[C@H]1C[C@@H]2CC[C@H]3[C@H]4C[C@H]([N+]5(C)CCCCC5)[C@@H](OC(C)=O)[C@@]4(C)CC[C@@H]3[C@@]2(C)C[C@H]1N1CCCCC1` 0 (no)
